B1: library; a variant is named by its letters at X, in order (parent)
chain: MNIQIGELAKRTACPVVTIRFYEQEGLLPPPGRSRGNFRLYGEEHVERLQFIRHCRSLDMPLSXVRTLLSYRKRPDQDCGEVXMLLDEHIRQVESRIGALLELXHHXVELREACSGARPAQSCGILQXLSXCVCXTRGTTAHXSD

Variants of: B1
assay.overview: sfGFP reporter fluorescence (15 h) (µM FITC); higher = stronger transcriptional activation
stated.conditions: library round: Round 3; ligand: 30 µM Zn
measurement.kind: sfGFP reporter fluorescence

| mutant | measurement.kind | readout.number |
| --- | --- | --- |
| DTKLGSPP V108L | sfGFP reporter fluorescence | 0.186 |
| DTKLGMAP V108L | sfGFP reporter fluorescence | 0.288 |
| KIVLGDDR H106E | sfGFP reporter fluorescence | 0.0612 |
| DTKCIDAK | sfGFP reporter fluorescence | 2.86 |
| DNKCGAAY | sfGFP reporter fluorescence | 2.26 |
| DNRCMDAK D87E | sfGFP reporter fluorescence | 2.56 |
| DNKCGAAP H54C C55P H106L | sfGFP reporter fluorescence | 0.0485 |
| NNKCMDDP M60L P61N | sfGFP reporter fluorescence | 3.4 |
| TTKCGDRP | sfGFP reporter fluorescence | 2.74 |
| DCKVGDDP V82I L85M | sfGFP reporter fluorescence | 0.128 |
| DNRLGAPL | sfGFP reporter fluorescence | 0.905 |
| KFVLGDDA H106A | sfGFP reporter fluorescence | 0.104 |
| KITLGDDR H106A | sfGFP reporter fluorescence | 0.0503 |
| DNKCIDAK M84A G124A | sfGFP reporter fluorescence | 2.75 |
| KNKLGDAP P61N L62I V108E | sfGFP reporter fluorescence | 1.08 |
| DCKLGADY V16C H106A | sfGFP reporter fluorescence | 0.0501 |
| DNRCIDDP M60L P61N | sfGFP reporter fluorescence | 2.29 |
| DNKCGADY G124A | sfGFP reporter fluorescence | 2.05 |
| DTKCGAAP | sfGFP reporter fluorescence | 2.21 |
| KNKCTDDP M60L P61N | sfGFP reporter fluorescence | 3.2 |
| KNVCMDDP M60L P61N | sfGFP reporter fluorescence | 2.86 |
| KNKCGADP M60L P61N | sfGFP reporter fluorescence | 2.51 |
